Parameter pKi: see the listing below.
# measurement.target: BCL2 G101V (Homo sapiens, UniProt P10415, G101V)
# protocol.description: TR-FRET competitive binding assay, BCL2 G101V
# condition: BCL2 G101V; Ki determined from IC50; read-out: TR_FRET EKI_Bcl2 G101V
In simple prose, pKi is minus the logarithm base ten of a concentration in moles per litre.

Cc1c(C(=O)N(c2ccc(O)cc2)c2cc(C#N)n(C(F)F)c2C)cc(-c2cc3c(cc2C(=O)N2Cc4ccccc4C[C@H]2CN2CCCC2)CN(C(=O)Cc2ccc(OCCN4CCOCC4)cc2F)CC3)n1C; 9.52
Cc1c(N(C(=O)c2cc(-c3cc4c(cc3C(=O)N3Cc5ccccc5C[C@H]3C)CN(C(=O)Cc3ccc(Oc5ccccc5)cc3)CC4)n(C)c2C)c2ccc(O)cc2)cc(C#N)n1C; 8.24
Cc1c(N(C(=O)c2cc(-c3cc4c(cc3C(=O)N3Cc5ccccc5C[C@H]3CN3CCCCC3)CN(C(=O)Cc3ccc(OCCN5CCC(F)CC5)cc3)CC4)n(C)c2C)c2ccc(O)cc2)cc(C#N)n1C; 9.52
Cc1c(N(C(=O)c2cc(-c3cc4c(cc3C(=O)N3Cc5ccccc5C[C@H]3C)CN(C(=O)C(F)(F)c3ccccc3)CC4)n(C)c2C)c2ccc(O)cc2)cc(C#N)n1C; 8.38

Next:
Input: GET /values?readout=pKi&item= `Cc1c(N(C(=O)c2cc(-c3cc4c(cc3C(=O)N3Cc5ccccc5C[C@H]3CN3CCCCC3)CN(C(=O)C(F)(F)c3ccc(OCCN5CCOCC5)cc3)CC4)n(C)c2C)c2ccc(O)cc2)cc(C#N)n1C`
Output: 8.89
